Biological target: KRAS G12V protein in SW900 cells (Homo sapiens, UniProt P01116, G12V)
Construct: endogenous in cells; host or cells: SW900
Sequence (P01116 1-188 isoform P01116-2 G12V): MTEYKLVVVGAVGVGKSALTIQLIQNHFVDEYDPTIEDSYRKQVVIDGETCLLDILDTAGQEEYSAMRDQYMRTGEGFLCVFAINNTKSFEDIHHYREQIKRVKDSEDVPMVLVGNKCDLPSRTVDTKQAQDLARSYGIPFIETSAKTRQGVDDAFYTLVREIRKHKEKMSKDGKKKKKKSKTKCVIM
Experiment: KRAS degradation assay (Western Blot) in SW900 cells
Format: cell-based
Conditions: 24 h
outcome measure: DC50

CCc1c(F)ccc2cc(O)cc(-c3ncc4c(N5CCC[C@@](C)(O)C5)nc(OCC5(CN6CCN(CC7CCC8(CC7)CCN(C(=O)c7ccc(Cl)c(N9CCC(=O)NC9=O)c7)CC8)CC6)CC5)nc4c3F)c12 [Example 2]	≤ 50 nM
C#Cc1cccc2cc(O)cc(-c3ncc4c(N5CCC[C@@](C)(O)C5)nc(OCC5(CN6CCC(CCOCC7CCN(C(=O)c8ccc(OC)c(N9CCC(=O)NC9=O)c8)CC7)CC6)CC5)nc4c3F)c12 [Example 38]	≤ 50 nM
C#Cc1c(F)ccc2cc(O)cc(-c3ccc4c(N5CCC[C@@](C)(O)C5)nc(OCC5(CN6CCN(CC7CCC8(CC7)CCN(C(=O)c7ccc(C)c(N9CCC(=O)NC9=O)c7)CC8)CC6)CC5)nc4c3F)c12 [Example 41]	≤ 50 nM
CCc1cccc2cc(O)cc(-c3ccc4c(N5CCC[C@@](C)(O)C5)nc(OCC5(CN6CCN(CC7CCC8(CC7)CCN(C(=O)c7ccc(C)c(N9CCC(=O)NC9=O)c7)CC8)CC6)CC5)nc4c3F)c12 [Example 49]	62.9 nM

Per the records, this molecule ( C#Cc1c(F)ccc2cc(O)cc(-c3ncc4c(N5CCC[C@@](C)(O)C5)nc(OCC5(CN6CCC(COCCC7CCN(C(=O)c8ccc(Cl)c(N9CCC(=O)NC9=O)c8)CC7)CC6)CC5)nc4c3F)c12 [Example 10] ) has DC50 equal to ≤ 50 nM

----------
Biological target: KRAS G13D protein in DLD-1 cells (Homo sapiens, UniProt P01116, G13D)
Construct: endogenous in cells; host or cells: DLD-1
Sequence (P01116 1-188 isoform P01116-2 G13D): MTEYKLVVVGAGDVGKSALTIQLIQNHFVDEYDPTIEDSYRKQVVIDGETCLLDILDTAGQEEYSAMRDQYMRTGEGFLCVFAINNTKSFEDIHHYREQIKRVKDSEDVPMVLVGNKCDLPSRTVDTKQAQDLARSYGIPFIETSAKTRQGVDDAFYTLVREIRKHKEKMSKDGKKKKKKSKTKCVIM
Assay: KRAS degradation assay (Western Blot) in DLD-1 cells
Type: cell-based
Settings: 24 h
outcome measure: DC50 (nM)
Response body: numeric value in nM, unit text excluded.

DC50 on KRAS G13D protein in DLD-1 cells (Homo sapiens, UniProt P01116, G13D) for [2H]C([2H])([2H])c1ccc(C(=O)N2CCC3(CCC(CN4CCN(CC5(COc6nc(N7CCC[C@@](C)(O)C7)c7cnc(-c8cc(O)cc9ccc(F)c(C#C)c89)c(F)c7n6)CC5)CC4)CC3)CC2)cc1N1CCC(=O)NC1=O is 6.78

DC50 on KRAS G13D protein in DLD-1 cells (Homo sapiens, UniProt P01116, G13D) for C#Cc1c(F)ccc2cc(O)cc(-c3ncc4c(N5CCC[C@@](C)(O)C5)nc(OC[C@H](C)CN5CCN(CC6CCC7(CC6)CCN(C(=O)c6ccc(Cl)c(N8CCC(=O)NC8=O)c6)CC7)CC5)nc4c3F)c12 is 1.34

----------
Molecular target: KRAS G12V protein in SW620 cells (Homo sapiens, UniProt P01116, G12V)
Construct: endogenous in cells; host or cells: SW620
Sequence (P01116 1-188 isoform P01116-2 G12V): as the sequence (P01116 1-188 isoform P01116-2 G12V) above
Assay: KRAS degradation assay (Western Blot) in SW620 cells
Type: cell-based
Details: SW-620, 24 h
outcome measure: Dmax (%)
Response body: numeric value in %, unit text excluded.

C#Cc1c(F)ccc2cc(O)cc(-c3ncc4c(N5CCC[C@@](C)(O)C5)nc(OCC(C)CN5CCN(CC6CCC7(CC6)CCN(C(=O)c6ccc(OC)c(N8CCC(=O)NC8=O)c6)CC7)CC5)nc4c3F)c12 (stereo partly shown) [Example 86]	89.2
[2H]C([2H])([2H])c1ccc(C(=O)N2CCC3(CCC(CN4CCN(CC5(COc6nc(N7CCC[C@@](C)(O)C7)c7cnc(-c8cc(O)cc9ccc(F)c(C#C)c89)c(F)c7n6)CC5)CC4)CC3)CC2)cc1N1CCC(=O)NC1=O [Example 111]	100
C#Cc1c(F)ccc2cc(O)cc(-c3ccc4c(N5CCC[C@@](C)(O)C5)nc(OC[C@H](C)CN5CCN(CC6CCC7(CC6)CCN(C(=O)c6ccc(OC)c(N8CCC(=O)NC8=O)c6)CC7)CC5)nc4c3F)c12 [Example 60]	99.1
[2H]C([2H])([2H])c1ccc(C(=O)N2CCC3(CCC(CN4CCN(C[C@@H](C)COc5nc(N6CCC[C@@](C)(O)C6)c6cnc(-c7cc(O)cc8ccc(F)c(C#C)c78)c(F)c6n5)CC4)CC3)CC2)cc1N1CCC(=O)NC1=O [Example 132]	100
[2H]C([2H])([2H])Oc1ccc(C(=O)N2CCC3(CCC(CN4CCN(C[C@@H](C)COc5nc(N6CCC[C@@](C)(O)C6)c6cnc(-c7cc(O)cc8ccc(F)c(C#C)c78)c(F)c6n5)CC4)CC3)CC2)cc1N1CCC(=O)NC1=O [Example 164]	99.5

// moving on: another record for Dmax
Per the records, this molecule ( C#Cc1c(F)ccc2cc(O)cc(-c3ncc4c(N5CCC[C@@](C)(O)C5)nc(OCC5(CN6CCN(CC7CCC8(CC7)CCN(C(=O)c7ccc(OC)c(N9CCC(=O)NC9=O)c7)CC8)CC6)CC5)nc4c3F)c12 [Example 7] ) has Dmax equal to 100
